- measured_target: polyclonal human IgG
- experiment: affinity chromatography; VHH coupled to NHS-Sepharose 4B FF, polyclonal human IgG 0.5 mg/ml in PBS pH 7.4, 150 cm/hr
property_measured: DBC (dynamic binding capacity) (mg/mL)
State just the number; it will be interpreted in mg/mL.

DBC (dynamic binding capacity) reading for anti IgG-CH1 VHH #55 (VHH) VHH: QVQLQESGGGLVQAGGSLRLSCAVSGNTLSRYAMGWFRQTPGNEREFVAAIRWNNGATYYADSVKGRFTISRDSGKNTVYLQMNNLKPEDTAVYYCAGRFLGYASSNAYHEALYNYDYWGQGTQVTVSS : 11.3
